Data provenance is ChEMBL document CHEMBL1153807.

- EXPERIMENT: Cytotoxicity against human monocytes at 100 uM after 24 hrs
- Assay type: cell-based
- ASSAY SETUP: monocyte

SMILES TEXT	Activity
CC(C)C[C@@H]1C(=O)N[C@@H](Cc2c[nH]c3ccccc23)C(=O)N1C	Non-toxic
O=C1N[C@H](Cc2cc(Cl)c(O)c(Cl)c2)C(=O)N2CCC[C@H]12	Non-toxic
CON1C(=O)C2NC(=O)[C@@]13Oc1cc(O)c(Cl)cc1[C@@H]3SS2	Toxic
O=C1N[C@@H](Cc2ccc(O)cc2)C(=O)N2CCC[C@@H]12	Non-toxic
